Entries and their measured z-score of subpopulation abundance follow.
Tested on: Saccharomyces cerevisiae BY4741 SeMeCo community
measurement-protocol: z-score of subpopulation abundance vs DMSO median, subpopulation auxotrophic for HLUM; higher = larger share of this subpopulation than in DMSO controls
run-parameters: 10 µM; 24 h; SM minimal medium; subpopulation (auxotrophy): HLUM
Where a name gives a salt, the structure may show the parent alone.
measurement-name: z-score of subpopulation abundance

- molecule: "COc1ccc2cc(C(=O)O)ccc2c1"
  readout-value: 1.63
- molecule: "C[C@@H](c1nc(-c2ccc(C#N)cc2)cs1)[C@](O)(Cn1cncn1)c1cc(F)ccc1F"
  readout-value: 13.5
- molecule: "C=CC1=C(C(=O)O)N2C(=O)[C@@H](NC(=O)/C(=N\\OCC(=O)O)c3csc(N)n3)[C@H]2SC1"
  readout-value: -0.73
- molecule: "CCCOc1ccc(C(=O)OCCN(CC)CC)cc1N [Proparacaine HCl]"
  readout-value: -0.51
- molecule: "CN1CCN(C2=Nc3cc(Cl)ccc3Nc3ccccc32)CC1"
  readout-value: -0.29
- molecule: "C/C=C\\c1ccc(O)c(OC)c1"
  readout-value: 0.03
- molecule: "O=C(Nc1cc(Cl)cc(Cl)c1O)c1c(O)c(Cl)cc(Cl)c1Cl [Oxyclozanide]"
  readout-value: 2.05
- molecule: "NC1CCN(c2nc3c(cc2F)c(=O)c(C(=O)O)cn3-c2ccc(F)cc2F)C1 (stereo not drawn) [Tosufloxacin p-Toluenesulfonate Hydrate]"
  readout-value: -0.36
- molecule: "Cc1cccc(C)c1NC(=O)C1CCCCN1C (stereo not drawn) [Mepivacaine]"
  readout-value: -0.41
- molecule: "C[C@@H]1CN(c2c(F)c(N)c3c(=O)c(C(=O)O)cn(C4CC4)c3c2F)C[C@H](C)N1"
  readout-value: -0.92
- molecule: "Cc1nnc(SCC2=C(C(=O)O)N3C(=O)[C@@H](NC(=O)Cn4cnnn4)[C@H]3SC2)s1 [Cefazolin Sodium]"
  readout-value: -0.81
- molecule: "CCCCOc1ccc(C(=O)CCN2CCCCC2)cc1 [Dyclonine HCl]"
  readout-value: -0.65
- molecule: "CC(=O)NO [Acetohydroxamic acid]"
  readout-value: 0.86
- molecule: "CO/N=C1\\C[C@]2(C[C@@H]3C[C@@H](C/C=C(\\C)C[C@@H](C)/C=C/C=C4\\CO[C@@H]5[C@H](O)C(C)=C[C@@H](C(=O)O3)[C@]45O)O2)O[C@H](/C(C)=C/C(C)C)[C@H]1C"
  readout-value: -0.1
- molecule: "CN(CCN1CCC(OC(=O)Nc2ccccc2-c2ccccc2)CC1)C(=O)c1ccc(CN2CCC(C(N)=O)CC2)cc1"
  readout-value: -0.7
- molecule: "COc1cc([C@@H]2c3cc4c(cc3[C@@H](O[C@@H]3O[C@@H]5CO[C@@H](C)O[C@H]5[C@H](O)[C@H]3O)[C@H]3COC(=O)[C@H]23)OCO4)cc(OC)c1O [Etoposide]"
  readout-value: 1.05
- molecule: "CCCCOc1ccc(CC(=O)NO)cc1"
  readout-value: -1.25
- molecule: "CCCCc1oc2ccccc2c1C(=O)c1cc(I)c(OCCN(CC)CC)c(I)c1 [Amiodarone HCl]"
  readout-value: 5.2
- molecule: "Nc1nc(O)c2ncn(CCC(CO)CO)c2n1"
  readout-value: -0.97
- molecule: "CCCCCCCCN=c1ccn(CCCCCCCCCCn2ccc(=NCCCCCCCC)cc2)cc1 [Octenidine Dihydrochloride]"
  readout-value: 58.5
- molecule: "C[C@@H](c1ncncc1F)[C@](O)(Cn1cncn1)c1ccc(F)cc1F"
  readout-value: 16.5
- molecule: "COc1ccnc(C[S+]([O-])c2nc3cc(OC(F)F)ccc3[nH]2)c1OC (stereo not drawn) [Pantoprazole]"
  readout-value: 0.7
- molecule: "CC(C(=O)O)c1ccc2c(c1)[nH]c1ccc(Cl)cc12 (stereo not drawn)"
  readout-value: 0.18
- molecule: "CCC(C)(C)C(=O)O[C@H]1C[C@@H](C)C=C2C=C[C@H](C)[C@H](CC[C@@H]3C[C@@H](O)CC(=O)O3)[C@H]21"
  readout-value: 2.55
- molecule: "Cc1c(-c2ccc(O)cc2)n(Cc2ccc(OCCN3CCCCCC3)cc2)c2ccc(O)cc12 [Bazedoxifene HCl]"
  readout-value: -0.25
- molecule: "Cc1ncc([N+](=O)[O-])n1C"
  readout-value: 0.31
- molecule: "c1ccc2[nH]c(-c3cscn3)nc2c1"
  readout-value: -0.43
- molecule: "CCN1CCN(C(=O)N[C@@H](C(=O)N[C@@H]2C(=O)N3C(C(=O)O)=C(CSc4nnnn4C)CS[C@H]23)c2ccc(O)cc2)C(=O)C1=O"
  readout-value: 0.24
- molecule: "O=c1n(CCCN2CCN(c3cccc(Cl)c3)CC2)nc2ccccn12 [Trazodone HCl]"
  readout-value: -0.57
- molecule: "Cc1ccsc1/C=C/C1=NCCCN1C [Morantel tartrate]"
  readout-value: -0.47
- molecule: "C=CCN1CCCC1CNC(=O)c1cc2nn[nH]c2cc1OC (stereo not drawn) [Alizapride HCl]"
  readout-value: 0.23
- molecule: "CN1C(C(=O)Nc2ccccn2)=C(O)c2sc(Cl)cc2S1(=O)=O"
  readout-value: -0.1
- molecule: "O=C(Nc1cccc(C2=NCCN2)c1)Nc1cccc(C2=NCCN2)c1 [Imidocarb dipropionate]"
  readout-value: 0.13

Data provenance is the supplement of paper PMC8975748.
